experiment: in vivo; conditions: mouse, in vivo, po, 30 mg/kg
Kindly supply the reported Area under curve AUC values for the records listed here.
Please state the number and follow it with the unit.

Query: Quick one: Area under curve AUC for C=CC(=O)N1CCCC(Nc2nc(Nc3ccc(N4CCOCC4)cc3)c3c(c2F)CNC3=O)C1 (stereo not drawn) [Compound G-14] ?
Reply: 1072 ng·h/mL

Query: Also C=CC(=O)N1CCCC(Nc2nc(Nc3ccc(N4CCOCC4)c(F)c3)c3c(c2F)CNC3=O)C1 (stereo not drawn) [Compound G-33] ?
Reply: 1193 ng·h/mL

Query: What do you get for C=CC(=O)N1CCCC(Nc2nc(Nc3ccc(N4CCN(C5COC5)CC4C)cc3)c3c(c2F)CNC3=O)C1 (stereo not drawn) [Compound G-34] ?
Reply: 1869 ng·h/mL

---

assay: in vivo; conditions: male, ICR, mouse, in vivo, po, 30 mg/kg
ENDPOINT LABEL: half-life (h)
Provide only the numeric value, understood in h.

Query: Fill in the blank: the reported half-life of C=CC(=O)N1CCCC(N(C)c2nc(Nc3ccc(N4CCOCC4)cc3)c3c(c2F)CNC3=O)C1 (stereo not drawn) is ____.
Reply: 11.3

Query: What do you get for C=CC(=O)N1CCC[C@H](Nc2nc(Nc3ccc(N4CCOCC4)cc3)c3c(c2F)CNC3=O)C1 ?
Reply: 2.47

Query: And then C=CC(=O)N1CCCC(Nc2nc(-c3cnn(C)c3)c3c(c2F)CNC3=O)C1 (stereo not drawn) , what is it?
Reply: 1.55

---

biological target: UniProtKB Q06187; assay: Intracellular βBTK Y223 phosphorylation HTRF in Ramos cells
Sequence (Q06187 whole entry): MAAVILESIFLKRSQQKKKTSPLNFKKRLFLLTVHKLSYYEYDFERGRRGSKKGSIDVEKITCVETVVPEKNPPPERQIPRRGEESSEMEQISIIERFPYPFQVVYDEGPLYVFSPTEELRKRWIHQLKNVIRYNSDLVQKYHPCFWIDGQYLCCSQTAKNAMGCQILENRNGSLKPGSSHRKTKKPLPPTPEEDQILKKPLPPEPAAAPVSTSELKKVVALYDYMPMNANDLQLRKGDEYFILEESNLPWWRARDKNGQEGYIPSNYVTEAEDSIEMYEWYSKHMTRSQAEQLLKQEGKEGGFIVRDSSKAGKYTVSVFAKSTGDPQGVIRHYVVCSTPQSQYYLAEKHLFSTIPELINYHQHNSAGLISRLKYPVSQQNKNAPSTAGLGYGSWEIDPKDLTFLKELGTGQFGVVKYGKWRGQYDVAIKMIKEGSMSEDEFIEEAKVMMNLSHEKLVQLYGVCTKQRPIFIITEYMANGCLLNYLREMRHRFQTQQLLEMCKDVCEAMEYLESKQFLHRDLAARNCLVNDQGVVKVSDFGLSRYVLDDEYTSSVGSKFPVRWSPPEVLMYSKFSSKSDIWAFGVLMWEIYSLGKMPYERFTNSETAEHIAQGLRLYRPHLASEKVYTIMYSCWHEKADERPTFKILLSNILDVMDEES
ENDPOINT LABEL: pIC50
Note: pIC50 values are expressed as the negative base-10 logarithm of concentration in M.

Query: What does the data say about its pIC50? Entry: C=CC(=O)N1CCCCC(Nc2nc(Nc3ccc(OCCOC)cc3)c3c(c2F)CNC3=O)C1 (stereo not drawn) [Compound G-3]
Reply: 7.96

Query: # repeat for C=CC(=O)NC1CN(c2nc(Nc3cnn(C)c3)c3c(c2F)CNC3=O)C1 [Compound G-85]
Reply: 7.37

Query: Would you mind doing C=CC(=O)N1CC(Nc2nc(Nc3ccc(OCCOC)cc3)c3c(c2F)CNC3=O)C1 [Compound G-5] as well?
Reply: 7.23

Query: Try this compound next: C=CC(=O)N1CCCC(Nc2nc(Nc3cnn(C4CCS(=O)(=O)CC4)c3)c3c(c2F)CNC3=O)C1 (stereo not drawn) [Compound G-13]
Reply: 7.35

Query: And what about the compound C=CC(=O)N1CCCC(N(C)c2nc(-c3cnn(C)c3)c3c(c2F)CNC3=O)C1 (stereo not drawn) [Compound G-60] ?
Reply: 7.62

Query: Would you mind doing C=CC(=O)N1CCCC(N(C)c2nc(Nc3ccc(N4CCOCC4)cc3)c3c(c2F)CNC3=O)C1 (stereo not drawn) [Compound G-71] as well?
Reply: 8.52

Query: Would you mind doing C=CC(=O)N1CC(Nc2nc(Nc3ccc(N4CCOCC4)cc3)c3c(c2F)CNC3=O)CCC1C (stereo not drawn) [Compound G-28] as well?
Reply: 8.00

Query: Then C=CC(=O)N1CC(Nc2nc(-c3cnn(C)c3)c3c(c2F)CNC3=O)CCC1C (stereo not drawn) [Compound G-26] ?
Reply: 7.33

Query: Same read-out for C=CC(=O)N1CCC2CN(c3nc(Nc4cnn(C)c4)c4c(c3F)CNC4=O)CC21 (stereo not drawn) [Compound G-87] ?
Reply: 8.40

Query: Consider next the compound C=CC(=O)N1CCCC(Nc2nc(-c3cnn(C4CC4)c3)c3c(c2F)CNC3=O)C1 (stereo not drawn) [Compound G-45] in the same way.
Reply: 6.96

Query: Further, for C=CC(=O)N1CCCC(Nc2nc(Nc3ccc(N4CCOCC4)cc3)c3c(c2F)CNC3=O)C1 (stereo not drawn) [Compound G-14] ?
Reply: 8.52

Query: // next record C=CC(=O)N1CCCC(Nc2nc(Nc3cnn(C4CCOCC4)c3)c3c(c2F)CNC3=O)C1 (stereo not drawn) [Compound G-10]
Reply: 8.15

Query: Another compound to look at: C=CC(=O)N1CCCC(Nc2nc(Nc3cnn(C)n3)c3c(c2F)CNC3=O)C1 (stereo not drawn) [Compound G-35]
Reply: 7.46

Query: Ok, now C=CC(=O)N1CCCC(Nc2nc(Nc3ccc(OCCOC)cc3)c3c(c2F)CNC3=O)C1 (stereo not drawn) [Compound G-2]
Reply: 8.30

Query: # repeat for C=CC(=O)N1CCCC(Nc2nc(-c3cnn(C(F)F)c3)c3c(c2F)CNC3=O)C1 (stereo not drawn) [Compound G-48]
Reply: 7.21
